- Tested on: KM12
- experimental protocol: NCI tumour cell line growth inhibition, 48 h
The source made the active and inactive calls. No stated cut-off is given here; in the data, active = GI50 up to about 1.1 µM and inactive = higher.
quantity kind: GI50

# example entries with known answers
The recorded GI50 for entry Nc1nc2c(ncn2C2OC(CO)C(O)C2N)c(=O)[nH]1 (stereo not given) equals > 100 µM (inactive)

// GI50 lookup, compound = CCc1cccc(CC)c1Nc1nc2c(s1)C(=O)c1ccccc1C2=O , result: 18.1 µM (inactive)

Field GI50 (entry Cn1cc(C(=O)NCCC(=N)N)cc1NC(=O)C1=[N+](C)C=C(NC(=O)c2cccc(C(=O)NC3=CC(C(=O)Nc4cc(C(=O)NCCC(=N)N)cn4C)=[N+](C)C3)c2)C1 ) reads 36.3 µM (inactive)

Kindly note the recorded GI50 for CC(Oc1ccc2c(=O)cc(-c3ccccc3)oc2c1)C(=O)O (stereo not given) , which is > 100 µM (inactive)

// below: GI50 requested for another compound
Reported GI50 ( N/N=C1\C(=O)N(c2ccc(Cl)c(Cl)c2)C(=O)C1C(=O)Nc1ccc(Cl)c(Cl)c1 (stereo not given) ) = 50.7 µM (inactive)

* * *

- System: SK-MEL-2
- experimental protocol: NCI tumour cell line growth inhibition, 48 h
The source made the active and inactive calls. Cut-off read from the data, not from the text of the source: active = GI50 up to about 1.1 µM and inactive = higher. Non-standard residues stand in square brackets, D forms with d. Residues, ends and D or L forms follow the SMILES beside them. β3hI = CC[CH](C)[CH](N)CC(=O)O
As shown below, each of these compounds has a reported GI50 value.

In the examples that follow, each entry is paired with its recorded GI50.
For reference, reported GI50 for CCC(C)C(CC(=O)N1CCCC1C(=O)NC(C(=O)NC(C(=O)NCC(=O)NC(CC(N)=O)C(=O)NC(C(=O)NC(C(=O)NC(CCCCN)C(N)=O)C(C)CC)C(C)CC)C(C)C)C(C)CC)NC(=O)C(N)C(C)CC (stereo not drawn) (H-I[β3hI]PIVGNIIK-NH2; configuration not given here) stands at > 50 µM (inactive)

Lab note: CCN1C(=S)n2cccc2C1CC(=O)c1ccc(Cl)cc1 (stereo not drawn) gave GI50 of 58.2 µM (inactive)

// sample CC(=O)NC(ON1C(=O)COc2ccccc21)C(Cl)(Cl)Cl (stereo not drawn) , its GI50 was > 100 µM (inactive)

// sample CN(C)CCCN1c2ccc([N+](=O)[O-])cc2CCc2cccc([N+](=O)[O-])c21 , its GI50 was 18.7 µM (inactive)

Per the record, Cc1ccc(S(=O)(=O)Nc2ccccc2C=O)cc1 has GI50 of 11.9 µM (inactive)

New cases:
So, Cc1ccc(C)c(N2C(=O)C(=O)C(c3nc4ccccc4s3)C(=O)C2=O)c1 ? Its GI50 was > 100 µM (inactive)

get_value(item= O=S(=O)(O)c1ccc(/N=N/c2ccc(/N=N/c3c(O)ccc4ccccc34)cc2)cc1 , readout=GI50) returns > 100 µM (inactive)

Lab book: GI50 of CCOC(=O)Oc1ccc(C(CNC(C)C)OC(=O)OCC)cc1OC(=O)OCC (stereo not drawn) noted as > 100 µM (inactive)

* * *

- System: SK-MEL-5
- experimental protocol: NCI tumour cell line growth inhibition, 48 h
Calls of active or inactive are those of the source. Rule as the data show it: active = GI50 up to about 1.1 µM and inactive = higher.
Entries and their measured GI50 follow.

Lab note: measured GI50 of COc1ccc([C@]23CCC4(OCC(C)(C)CO4)[C@H]4CON(O[C@H](O[C@@H]5CCCCC5C(C)(C)c5ccccc5)C2)[C@@H]43)cc1OC (stereo partly drawn) was 22.2 µM (inactive)

***
The compound identified as NCCCNc1ccc2c3c(nn2CCNCCO)-c2c(O)ccc(O)c2C(=O)c13 registered its GI50 at 0.925 µM (active)
